- experimental target: hemagglutinin on whole influenza A virions, A/Wisconsin/67/05 H3N2 (Influenza A virus …)
- assay explanation: cell-based or functional assay
quantity name: % Neutralization (%)
Give bare numbers, in %.

Input line: Please look at this binder and report its % Neutralization: TCN-547 (5092_F11) (antibody, V domains shown) VH: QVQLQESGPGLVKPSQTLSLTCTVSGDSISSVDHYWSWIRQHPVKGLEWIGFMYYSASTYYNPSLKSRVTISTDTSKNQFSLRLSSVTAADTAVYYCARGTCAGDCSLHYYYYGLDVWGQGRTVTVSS VL: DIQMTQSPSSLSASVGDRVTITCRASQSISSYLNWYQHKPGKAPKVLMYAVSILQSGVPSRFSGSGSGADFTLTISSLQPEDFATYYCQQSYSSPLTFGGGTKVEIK
Output line: 88
